B1: library; numbered along this chain (parent)
chain: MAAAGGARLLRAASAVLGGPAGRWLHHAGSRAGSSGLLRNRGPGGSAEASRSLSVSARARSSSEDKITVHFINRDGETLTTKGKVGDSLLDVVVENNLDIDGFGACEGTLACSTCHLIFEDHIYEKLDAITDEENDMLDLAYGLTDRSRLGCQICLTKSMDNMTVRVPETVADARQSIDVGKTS

Variants of: B1
Assay: scaled log2 fold change in cell abundance, elesclomol vs control (0 = silent mean, 1 = nonsense mean) (scaled log2 ratio); higher = higher viability under elesclomol (loss of FDX1 cuproptosis function);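 further: variant abundance is its share of total variant reads in each endpoint sample, from next-generation sequencing of the integrated ORF PCR-amplified out of genomic DNA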
Settings: with HEK293T FDX1 KO; elesclomol 40 nM; glucose 10 mM; 11 days
Metric: scaled log2 fold change
Form: value (number only, do not type unit).

Some entries whose results are on file:
Mutation label: D179A
scaled log2 fold change: -0.278
//
Mutation label: R147Q
scaled log2 fold change: -0.0201
//
Mutation label: K66S
scaled log2 fold change: -0.304
//
Mutation label: T157P
scaled log2 fold change: 0.296
//
Mutation label: S63F
scaled log2 fold change: -0.0458

Quick note, scaled log2 fold change for T114Y landed at 0.412

Quick note, scaled log2 fold change for K126G landed at 0.372

Quick note, scaled log2 fold change for R60P landed at 0.626

Quick note, scaled log2 fold change for G102H landed at 0.869

Quick note, scaled log2 fold change for M163Q landed at -0.237

Quick note, scaled log2 fold change for S54N landed at -0.939
